Test: Cell viability by DiOC6 staining, flow cytometry (normal control cells)
Format: cell-based, human
Conditions: human; control of PBMC; after 72 h; read-out: relative viability

chem smiles | viability at 72 h, 30 µM
C=C(CC)C(=O)c1ccc(OCC(=O)O)c(Cl)c1Cl | 89.5%

----------
System: Raji
Assay: Cell viability by DiOC6 staining, flow cytometry
Type: cell-based
Conditions: Homo sapiens, 72 h, 1x10^5 cells cultured three days, various concentrations
IC50 by entry:

compound | IC50
C=C(CC)C(=O)c1ccc(OCC(=O)O)c(Cl)c1Cl | 33 µM
Cc1cc(CC(C)CC(C)(C)C)n(O)c(=O)c1 (centres unmarked) | 0.6 µM
Nc1cccc2c1CN(C1CCC(=O)NC1=O)C2=O (racemic) [lenalidomide] | > 1000 µM
COC1=CC(=O)C[C@@H](C)[C@]12Oc1c(Cl)c(OC)cc(OC)c1C2=O | 33 µM
O=C1CCC(N2C(=O)c3ccccc3C2=O)C(=O)N1 (racemic) [thalidomide] | > 400 µM

----------
System: PBMC
Test: Cell viability by DiOC6 staining, flow cytometry (normal control cells)
Type: cell-based, human
Conditions: Homo sapiens; PBMC; after 72 h

chem smiles | IC50
Cc1cc(C2CCCCC2)n(O)c(=O)c1 | > 400 µM

----------
System: SU-DHL 4
Assay: Cell viability by DiOC6 staining, flow cytometry
Type: cell-based
Details: Homo sapiens, 72 h; SU-DHL 4; 1x10^5 cells cultured three days, various concentrations
recorded endpoint: IC50 (µM)

compound | unit info | qualifier symbol | endpoint value
COC1=CC(=O)C[C@@H](C)[C@]12Oc1c(Cl)c(OC)cc(OC)c1C2=O | µM | = | 22
Nc1cccc2c1CN(C1CCC(=O)NC1=O)C2=O (racemic) [lenalidomide] | µM | > | 1000
C=C(CC)C(=O)c1ccc(OCC(=O)O)c(Cl)c1Cl | µM | = | 58
O=C1CCC(N2C(=O)c3ccccc3C2=O)C(=O)N1 (racemic) [thalidomide] | µM | > | 400
Cc1cc(CC(C)CC(C)(C)C)n(O)c(=O)c1 (centres unmarked) | µM | = | 0.7

----------
Documented pIC50 across a set of compounds
Tested on: OPM-2 myeloma cells
Assay: Cell viability by DiOC6 staining, flow cytometry
Format: cell-based, human
Settings: Homo sapiens, 72 h; OPM-2; 1x10^5 cells cultured three days, various concentrations
pIC50: −log10 of the molar value.

compound | system tested | pIC50
Nc1cccc2c1CN(C1CCC(=O)NC1=O)C2=O (racemic) [lenalidomide] | OPM-2 myeloma cells | 4.89
Cc1cc(CC(C)CC(C)(C)C)n(O)c(=O)c1 (centres unmarked) [piroctone olamine] | OPM-2 myeloma cells | 6.15
O=C1CCC(N2C(=O)c3ccccc3C2=O)C(=O)N1 (racemic) [thalidomide] | OPM-2 myeloma cells | 4.28
C=C(CC)C(=O)c1ccc(OCC(=O)O)c(Cl)c1Cl [EA] | OPM-2 myeloma cells | 4.66
Cc1cc(C2CCCCC2)n(O)c(=O)c1 [CIC, ciclopirox olamine] | OPM-2 myeloma cells | 5.30
